# target_or_test_system: RAT BRAIN (Rattus norvegicus, UniProt P33533)
# Sequence (P33533 whole entry): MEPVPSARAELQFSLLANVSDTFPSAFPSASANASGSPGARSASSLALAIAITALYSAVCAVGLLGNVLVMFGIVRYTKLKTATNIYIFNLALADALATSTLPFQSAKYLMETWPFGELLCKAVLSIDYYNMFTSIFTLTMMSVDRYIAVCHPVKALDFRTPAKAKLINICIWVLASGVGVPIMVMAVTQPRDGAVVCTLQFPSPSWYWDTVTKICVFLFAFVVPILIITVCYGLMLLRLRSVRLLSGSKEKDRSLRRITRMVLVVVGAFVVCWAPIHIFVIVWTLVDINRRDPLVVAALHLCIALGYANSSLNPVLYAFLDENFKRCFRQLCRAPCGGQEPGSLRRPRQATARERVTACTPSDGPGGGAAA
# measurement_protocol: Functional agonism rat brain (EC50, % EMAX)
# Format: biochemical
Counter-ions that a name gives are not always drawn.
Measured Emax, listed per entry for reference.
Reply numerically in %, unit not repeated.

Worked cases, answers included:
* CCN(CC)C(=O)c1ccc(C(c2cccc3cccnc23)N2CCN(Cc3ccsc3)CC2)cc1 (stereo not shown) | 112
* CCN(CC)C(=O)c1ccc(C(c2cccc3cccnc23)N2CCN(Cc3ccco3)CC2)cc1 (stereo not shown) | 102

Provide value of Emax for this record tested with RAT BRAIN (Rattus norvegicus, UniProt P33533): CCN(CC)C(=O)c1ccc(C(c2cccc3cccnc23)N2CCN(Cc3ccccn3)CC2)cc1 (stereo not shown) [Example 12, Dihydrochloride] 106

Lab note: need Emax for CCN(CC)C(=O)c1ccc(C(c2cccc3cccnc23)N2CCN(Cc3ncc[nH]3)CC2)cc1.Cl.Cl (stereo not shown) [Example 17, Dihydrochloride] on RAT BRAIN (Rattus norvegicus, UniProt P33533), anyone have it? 106

Give recorded Emax with RAT BRAIN (Rattus norvegicus, UniProt P33533) for the following compound: CCN(CC)C(=O)c1ccc(C(c2cccc3cccnc23)N2CCN(Cc3cccs3)CC2)cc1.Cl.Cl (stereo not shown) [Example 16, Dihydrochloride] 100

Query for RAT BRAIN (Rattus norvegicus, UniProt P33533): what Emax does the record show for CCN(CC)C(=O)c1ccc(C(c2cccc3cccnc23)N2CCN(Cc3c[nH]cn3)CC2)cc1 (stereo not shown) [Example 18, Dihydrochloride] ? 111

Hi! What's the reported Emax for CCN(CC)C(=O)c1ccc(C(c2cccc3cccnc23)N2CCN(Cc3ccoc3)CC2)cc1 (stereo not shown) on RAT BRAIN (Rattus norvegicus, UniProt P33533)? 109
